assay: Cytotoxicity (CC50) in the genotype 1b replicon assay; format: cell-based; conditions: human; genotype 1b replicon assay as described in Example 32
measure.name: CC50

// query CC50 value for entry COc1ccc2c(O[C@H]3C[C@H]4C(=O)N(C)CCCC/C=C\[C@@H]5C[C@@]5(C(=O)NS(=O)(=O)C5(C)CC5)NC(=O)N4C3)cc(-c3nc(C(C)C)cs3)nc2c1C [Compound 56b] 10 to 75 µM

====

Assay system HCV NS3-NS4A protease (Hepatitis C virus genotype 1b); read-out recorded as pIC50.
pIC50: −log10 of the molar value.

# example entries with known answers
Test system HCV NS3-NS4A protease (Hepatitis C virus genotype 1b); read-out pIC50; what value for COc1ccc2c(O[C@H]3C[C@H]4C(=O)N(C)CCCC/C=C\[C@@H]5C[C@@]5(C(=O)NS(=O)(=O)C5(C)CC5)NC(=O)N4C3)cc(-c3nc(C(C)C)cs3)nc2c1Cl [Compound 56d] ? > 6.00

Test system HCV NS3-NS4A protease (Hepatitis C virus genotype 1b); read-out pIC50; what value for `COc1ccc2c(O[C@H]3C[C@H]4C(=O)N(C)CCCC/C=C\[C@@H]5C[C@@]5(C(=O)NS(=O)(=O)C5CC5)NC(=O)N4C3)cc(-c3csc(C(F)(F)F)n3)nc2c1C` ? > 6.00

---
Test system HCV NS3-NS4A protease (Hepatitis C virus genotype 1b); read-out pIC50; what value for COc1ccc2c(O[C@H]3C[C@H]4C(=O)N(C)CCCC/C=C\[C@@H]5C[C@@]5(C(=O)NS(=O)(=O)C5(C)CC5)NC(=O)N4C3)cc(-n3ccc(C(C)C)n3)nc2c1Cl [Compound 91d] ? > 6.00

Test system HCV NS3-NS4A protease (Hepatitis C virus genotype 1b); read-out pIC50; what value for COc1ccc2c(O[C@H]3C[C@H]4C(=O)N(C)CCCC/C=C\[C@@H]5C[C@@]5(C(=O)NS(=O)(=O)C5(C)CC5)NC(=O)N4C3)nc(-c3nc(C(C)C)cs3)nc2c1Cl [Compound 110d] ? > 6.00
